B1: TPR t1 (parent)
chain: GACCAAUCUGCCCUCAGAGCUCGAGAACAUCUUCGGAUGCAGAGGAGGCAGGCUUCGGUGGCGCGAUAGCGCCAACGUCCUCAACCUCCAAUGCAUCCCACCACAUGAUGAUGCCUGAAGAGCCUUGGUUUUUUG

Variants of: B1
Assay: polymerase ribozyme fitness, log enrichment relative to wild type (log ratio); higher = more active; in vitro selection for triplet polymerase activity
# if value of polymerase ribozyme fitness (log ratio) reaches -3, tag label 1; if it stays below, tag label 0

Look over these answered cases.
# Variant Descriptor, Cat
measured = [
    ("C86G A91G", "label 1"),
    ("A5U G10A C11A C72G G110A", "label 1"),
    ("C40U G48A A50C C72A", "label 1"),
    ("C56U C82A U106G G117U", "label 0"),
]

Query: Is reported polymerase ribozyme fitness (log ratio) greater than or equal to -3 here: U33A G36C C72U
Response: label 0

Query: Is reported polymerase ribozyme fitness (log ratio) greater than or equal to -3 here: C12U G69C U81C G110U
Response: label 0

Query: Is reported polymerase ribozyme fitness (log ratio) greater than or equal to -3 here: C34G G69U
Response: label 1

Query: Is reported polymerase ribozyme fitness (log ratio) greater than or equal to -3 here: C11U A37U U55C
Response: label 1

Query: Is reported polymerase ribozyme fitness (log ratio) greater than or equal to -3 here: C40A A43C G120C U130A
Response: label 1

Query: Is reported polymerase ribozyme fitness (log ratio) greater than or equal to -3 here: G60U C97A C104U U126G
Response: label 0

Query: Is reported polymerase ribozyme fitness (log ratio) greater than or equal to -3 here: A37U A43C
Response: label 1

Query: Is reported polymerase ribozyme fitness (log ratio) greater than or equal to -3 here: A5G C11U G48U G69A U131C
Response: label 0
